Overview of reported pIC50 across a group of binders:
Target: full-length beta-Catenin (Uniprot ID P35222) (Homo sapiens (Human)) (UniProt P35222)
Sequence (P35222 whole entry): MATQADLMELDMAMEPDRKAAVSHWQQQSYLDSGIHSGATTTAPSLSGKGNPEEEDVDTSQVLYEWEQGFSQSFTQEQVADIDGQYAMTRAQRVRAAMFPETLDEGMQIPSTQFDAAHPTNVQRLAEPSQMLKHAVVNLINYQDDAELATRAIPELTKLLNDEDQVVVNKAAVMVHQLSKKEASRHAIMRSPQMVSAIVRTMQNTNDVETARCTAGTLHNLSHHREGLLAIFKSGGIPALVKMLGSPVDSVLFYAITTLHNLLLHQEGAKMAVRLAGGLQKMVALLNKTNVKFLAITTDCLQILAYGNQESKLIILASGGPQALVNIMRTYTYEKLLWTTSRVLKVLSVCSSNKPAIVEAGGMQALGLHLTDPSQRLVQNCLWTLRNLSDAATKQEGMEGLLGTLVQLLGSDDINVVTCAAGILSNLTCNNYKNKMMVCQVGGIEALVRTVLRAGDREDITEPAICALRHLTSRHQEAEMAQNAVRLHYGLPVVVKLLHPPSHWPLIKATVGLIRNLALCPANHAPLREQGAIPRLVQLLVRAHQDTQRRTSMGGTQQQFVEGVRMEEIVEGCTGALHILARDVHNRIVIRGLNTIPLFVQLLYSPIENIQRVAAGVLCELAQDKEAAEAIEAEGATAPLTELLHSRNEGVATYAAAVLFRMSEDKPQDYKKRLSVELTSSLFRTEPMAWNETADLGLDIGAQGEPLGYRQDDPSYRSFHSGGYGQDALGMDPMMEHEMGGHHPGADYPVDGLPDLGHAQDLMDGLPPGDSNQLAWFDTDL
Assay: fluorescence polarization competition; full-length beta-catenin, 5FAM-TCF4(10-53) probe displaced
Starred links: 1 amine or outer side, 2 acyl side, 3 side chain; linkers in the order of their positions; H or OH if unused. Positions of bridges follow the written chain, without caps; N, C: chain ends. Non-standard residues stand in square brackets, D forms with d. Primed or numbered codes have the meaning given here. PyrS2″ = (S)-3-amino-1-((pent-4-en-1-yloxy)carbonyl)pyrrolidine-3-carboxylic acid (stapling residue), C=CCCCOC(=O)N1CC[C@@](N[*:1])(C(=O)[*:2])C1; B5(5) = 2,2-bis(4-pentenyl)glycine, 2-amino-2-(pent-4-en-1-yl)hept-6-enoic acid (stitching residue), C=CCCCC(CCCC=C)(N[*:1])C(=O)[*:2]; B5(3) = 2,2-bis(4-pentenyl)glycine (stitching residue), C=CCCCC(CCCC=C)(N[*:1])C(=O)[*:2]; Bta = N[C@@H](Cc1csc2ccccc12)C(=O)O; αAllylPro = C=CC[C@@]1(C(=O)O)CCCN1; tBuAla = CC(C)(C)C[C@H](N)C(=O)O; 3Thi = N[C@@H](Cc1ccsc1)C(=O)O; hSer = N[C@@H](CCO)C(=O)O
# reply with the number alone; pIC50 is -log10 of concentration in mol/L

Recorded results for 9 binders are shown here.
Return reported pIC50; argument: Ac-[αAllylPro]Q[tBuAla][B5(5)]DDAAFN[PyrS2″][3Thi][Bta]Q-NH2 (staple 1-4, 4-11) [Ac-PL3-Gln-Npg-B5-Asp-Asp-Ala-Ala-Phe-Asn-PyrS2-3Thi-BztA-Gln-NH2]
6.41

Next binder: Ac-[αAllylPro]N[tBuAla][B5(3)]DDAAFL[PyrS2″][3Thi][Bta]Q-NH2 (staple 1-4, 4-11) [Ac-PL3-Asn-Npg-B5-Asp-Asp-Ala-Ala-Phe-Leu-PyrS2-3Thi-BztA-Gln-NH2]
7.85

Next binder: Ac-[αAllylPro]D[tBuAla][B5(5)][hSer]DAAFN[PyrS2″][3Thi][Bta]Q-NH2 (staple 1-4, 4-11) [Ac-PL3-Asp-Npg-B5-Hse-Asp-Ala-Ala-Phe-Asn-PyrS2-3Thi-BztA-Gln-NH2]
6.94

Next binder: Ac-[αAllylPro]S[tBuAla][B5(5)]DDAAFL[PyrS2″][3Thi][Bta]Q-NH2 (staple 1-4, 4-11) [Ac-PL3-Ser-Npg-B5-Asp-Asp-Ala-Ala-Phe-Leu-PyrS2-3Thi-BztA-Gln-NH2]
6.26

Next binder: Ac-[αAllylPro]D[tBuAla][B5(5)]SDAAFL[PyrS2″][3Thi][Bta]Q-NH2 (staple 1-4, 4-11) [Ac-PL3-Asp-Npg-B5-Ser-Asp-Ala-Ala-Phe-Leu-PyrS2-3Thi-BztA-Gln-NH2]
6.32

Next binder: Ac-[αAllylPro]D[tBuAla][B5(5)]QDAAFN[PyrS2″][3Thi][Bta]Q-NH2 (staple 1-4, 4-11) [Ac-PL3-Asp-Npg-B5-Gln-Asp-Ala-Ala-Phe-Asn-PyrS2-3Thi-BztA-Gln-NH2]
7.25

Next binder: Ac-[αAllylPro]D[tBuAla][B5(3)]NDAAFN[PyrS2″][3Thi][Bta]Q-NH2 (staple 1-4, 4-11) [Ac-PL3-Asp-Npg-B5-Asn-Asp-Ala-Ala-Phe-Asn-PyrS2-3Thi-BztA-Gln-NH2]
7.49

Next binder: Ac-[αAllylPro]D[tBuAla][B5(5)]QDAAFL[PyrS2″][3Thi][Bta]Q-NH2 (staple 1-4, 4-11) [Ac-PL3-Asp-Npg-B5-Gln-Asp-Ala-Ala-Phe-Leu-PyrS2-3Thi-BztA-Gln-NH2]
6.94

Next binder: Ac-[αAllylPro]Q[tBuAla][B5(5)]DDAAFL[PyrS2″][3Thi][Bta]Q-NH2 (staple 1-4, 4-11) [Ac-PL3-Gln-Npg-B5-Asp-Asp-Ala-Ala-Phe-Leu-PyrS2-3Thi-BztA-Gln-NH2]
6.52

For the next question, use this binder.
Return reported pIC50; argument: Ac-[αAllylPro]D[tBuAla][B5(5)][hSer]DAAFL[PyrS2″][3Thi][Bta]Q-NH2 (staple 1-4, 4-11) [Ac-PL3-Asp-Npg-B5-Hse-Asp-Ala-Ala-Phe-Leu-PyrS2-3Thi-BztA-Gln-NH2]
6.67
